Values were extracted from paper PMC5540273.

- Test system: NEK9;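 further: KINOMEscan kinase panel screen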
- CONDITION: concentration: 1 μM, replicates: in singlicate; n = 1
ASSAY READOUT: %Inh (%)

MOLECULE | READING UNIT | QUANTITATIVE RESULT
Cl.Cl.NCC(C(=O)Nc1cc(Br)c(-c2ccnc3[nH]ccc23)s1)c1ccccc1 (stereo not shown) [GSK1269851] | % | 9
CSc1cccc2c(-c3ccncn3)c(-c3ccc(F)cc3)nn12 [GW514786] | % | 1
Cn1cc(-c2[nH]c3cc(NC(=O)[C@H](N)C4CCCCC4)cc4c3c2C=NNC4=O)cn1 | % | 11
COc1ccc(Nc2nccc(N3CCC(NC(=O)Nc4cccc(OC)c4)C3)n2)cc1 (stereo not shown) [GSK1379742] | % | 2
